// provenance: the supplement of paper PMC9170038

System: MS2 coat protein
procedure_summary: apparent KD of MS2 coat protein; higher = weaker reporter binding
run_parameters: Eterna round: R107; input ligand: arginine 13.2 mM
measured_property: apparent KD of MS2 coat protein (nM)
Your answer is read as nM, so omit the unit and give the number.

Worked cases, apparent KD of MS2 coat protein given:
AUUAAAAGUUGUGAUACCAGACGAACAUGAGGAUCACCCAUGUAACUUUUAGGUGUUGUAGUCCCUUGGCAGCACUAUGUAGUUA [JR_SSTheophyB_Sub012] : 31.3
CCCAAAUAGAUAUUUGGGAUUUUACUCGAAGGAGCGUCAUAGUAGGCAGGUAGGUCGCGAGACAUGAGGAUCACCCAUGUAGAGA [ss-argA-N] : 34.1
ACAUGAGGGCGAAGGAGCGCGAACAUGAGGAUCACCCAUGUCUAUAUCCGUCCGCAUGUAUCGCAGGUAGGUCGCGCUGUUACUU [#13 Exclusion - Arginine B] : 8.99
CUACAUUUGUAGAAACCGGUCAACAUUAUUCGAGGACCGGUACGGCCGCCACUCGUAUAAUUUAAUACAUGAGGAUCACCCAUGU [Tryptophan A 5] : 16.1
UGAUGGAACGGAAGGAGCGUGUAAGAACAAGAACAUGAGGAUCACCCAUGUAUUAAUUUAACACAGGUAGGUCGCCGAGAUAUUG [11.E] : 19.8

For this sequence ( UAUCUUGCGGGCGCCCGCAAGGUUGCGGAUACCAGCGAGAUAAAUCGCCCUUGGCAGCCGAACAUGAGGAUCACCCAUGUCGGAC [Same State - Theophylline A Attempt #1 (HarryS)] ), measured apparent KD of MS2 coat protein is 7.94

For this sequence ( GAUGAACUAUAUGAUACCAGACAACAUGAGGAUCACCCAUGUGUAUGUCGUCCUCUGCCUGUCCCUUGGCAGCGUAUAGUUUAUC [XTheo B #17] ), measured apparent KD of MS2 coat protein is 36.8

For this sequence ( AAACAUGAGGAUCACCCAUGUAAAGUUGAAGGAGCGACCAGAGGGUCAGGUAGGUCGCAACACAUGAGGAUCACCCAUGUAUCGA [DOUBLE!!! :-D #5] ), measured apparent KD of MS2 coat protein is 41.3

For this sequence ( AACGGUCGUACCGGAAUGAUCCUCAUGUAACGAGGACCGGUACGGCCGCCACUCGAUAACAUGAGGAUCACCCAUGUAAUAAUAA [|T'-M'-Trp-Ms2|_Design11] ), measured apparent KD of MS2 coat protein is 18.8

For this sequence ( AGAUUACAUGUUUUAAUAAGAUAAACUGAUACCAGUGUAUAUAUUCACCCUUGGCAGCAGCAACAUGAGGAUCACCCAUGUAUUA [JR_SSTheophyA_Sub015] ), measured apparent KD of MS2 coat protein is 14.4

For this sequence ( UGUAUGGACUGAAGGAGCGGAUGAUAUCAUGAGGAUCACCCAUGGAAUAAGGCGAAAGCCAUCCAGGUAGGUCGCAGUCCAUACU ), measured apparent KD of MS2 coat protein is 45.6

For this sequence ( UGUGGGCGCACGGCCGCCACUGUCUUCAUCUGUUUGUCUACAUGAGGAUCACCCAUGUUGGUUUACAGGACCGGGUGCAUCUAUG [SSTryp B #12] ), measured apparent KD of MS2 coat protein is 39.5

For this sequence ( AUGCAUAUCAGAAGGAGCGUCAUUAACAUGAGGAUCACCCAUGUAACAUUGAAUUCGAUGAGACAGGUAGGUCGCUGAAUAGUAA [SS-ArgB26] ), measured apparent KD of MS2 coat protein is 26.6

For this sequence ( CAUCGGGCGGUAAAUGGCGGGUACGGUGAUACCAGUUUUUGAUUUAACCCUUGGCAGCACUAUACAUGAGGAUCACCCAUGUAAU [theeternabot_exclusion_MS2_Theo_A_15] ), measured apparent KD of MS2 coat protein is 17.7

For this sequence ( GUAUGAGUUGACUGUGAGACUGGCGUGGAAGGAGCGCACGGAGGUGCAGGUAGGUCGCCACAUGAGGAUCACCCAUGUCAGGCCG [Ceedtila] ), measured apparent KD of MS2 coat protein is 32.4

For this sequence ( UAUCCACAUGAGGAUCACCCAUGUUAGGAAGGAGCGGUGAAUGAACCAGGUAGGUCGCCUAGGUGAGGACCAUCUAUGGAUUCGU [Exclusion - Arginine A (Freestyle 12)] ), measured apparent KD of MS2 coat protein is 12.8

For this sequence ( AUGGUUGUCGCGGCCGCCACUGUCGGCCGCCACUAAACAUGAGGAUCACCCAUGUAGGACCGGGACAGGACCGGGUGAUAACCAC [TryBS - #DoubleAptamer 3] ), measured apparent KD of MS2 coat protein is 24.1

For this sequence ( AUCGUACCUGAUGAUACCAGCAUGUGAUCGUAACAUGAGGAUCACCCAUGUAAUCAGUGAUGCCCUUGGCAGCAUGAUCGGUACA [Same State - Theophylline B (Freestyle 14)] ), measured apparent KD of MS2 coat protein is 79.2

For this sequence ( AUCGUACCUGAUGAUACCAGCAAGUGAUCAUAACAUGAGGAUCACCCAUGUAAUCAGUGAUGCCCUUGGCAGCAUAGUCGAUACA [Same State - Theophylline B (Freestyle 5)] ), measured apparent KD of MS2 coat protein is 77.8

For this sequence ( ACACAUGAGGAUCACCCAUGUCCAAUAGAUACCAGUGAUACGGUGCACCCUUGGCAGCUGUUACUGAGUGAUGGUUCCCUCGGAA [Same State Theophylline A GF3] ), measured apparent KD of MS2 coat protein is 48.1

For this sequence ( AAAAUAAAAUAAAAGGUGGAAAUAAGGCGGCGAGGACCGGUACGGCCGCCACUCGCGUACAUGAGGAUCACCCAUGUCUGAAAAU [Same State - Tryptophan A (Freestyle 1)] ), measured apparent KD of MS2 coat protein is 20.3

For this sequence ( AACAUGAGGAUCACCCAUGUCGGGCCGGUGCGAGGACCGGUACGGCCGCCACUCGAGACAUGAGGAUCACCCAUGUUGUGCGUGA [Exclusion Tryptophan A GF23] ), measured apparent KD of MS2 coat protein is 52.6

For this sequence ( AUAAAUAAUAAAUAAAAUAAAGUGGGUGAACGAGGACCGGUACGGCCGCCACUCGGACAUGAGGAUCACCCAUGUCCAUGUGAAA [AstrosExyTry#1] ), measured apparent KD of MS2 coat protein is 13.1
